- TGT: RdRp of the influenza virus (replicon activity) (Influenza A virus)
- MEASUREMENT_NOTES: Influenza virus RdRp replicon reporter (Luc) assay in transduced 293T cells
- Format: cell-based, Influenza A/PR/8/34 (H1N1)
- RECORDED_CONDITIONS: 6-Mercaptopurine concentration 7.4 μM; read-out: T-705 50% inhibitory concentration
PARAMETER: IC50 (µM)
Write the value in µM as a bare number.

Prompt line: Could you share what IC50 was measured for NC(=O)c1nc(F)cnc1O [T-705, 6-Fluoro-3-hydroxy-2-pyrazinecarboxamide] , tested on RdRp of the influenza virus (replicon activity) (Influenza A virus)?
Response line: 16

---

- TGT: RdRp of the influenza virus (replicon activity) (Influenza A virus, UniProt P03431)
- MEASUREMENT_NOTES: Influenza virus RdRp replicon reporter (Luc) assay in transduced 293T cells
- Format: cell-based, Influenza A/PR/8/34 (H1N1)
- RECORDED_CONDITIONS: Pralatrexate concentration 0.31 μM; read-out: T-705 50% inhibitory concentration
PARAMETER: IC50 (µM)
Write the value in µM as a bare number.

Prompt line: Look at this compound and give its reported IC50. NC(=O)c1nc(F)cnc1O [T-705, 6-Fluoro-3-hydroxy-2-pyrazinecarboxamide]
Response line: 25

---

- TGT: RdRp of the influenza virus (replicon activity) (Influenza A virus)
- MEASUREMENT_NOTES: Influenza virus RdRp replicon reporter (Luc) assay in transduced 293T cells
- Assay type: cell-based, Influenza A/PR/8/34 (H1N1)
- RECORDED_CONDITIONS: Methotrexate concentration 20 μM; read-out: T-705 50% inhibitory concentration
PARAMETER: IC50 (µM)
Write the value in µM as a bare number.

Prompt line: Look at this molecule and give its reported IC50. NC(=O)c1nc(F)cnc1O [T-705, 6-Fluoro-3-hydroxy-2-pyrazinecarboxamide]
Response line: 30

---

- TGT: RdRp of the influenza virus (replicon activity) (Influenza A virus, UniProt P03431)
- MEASUREMENT_NOTES: Influenza virus RdRp replicon reporter (Luc) assay in transduced 293T cells
- Format: cell-based, Influenza A/PR/8/34 (H1N1)
- RECORDED_CONDITIONS: Pralatrexate concentration 0.63 μM; read-out: T-705 50% inhibitory concentration
PARAMETER: IC50 (µM)
Write the value in µM as a bare number.

Prompt line: Could you share what IC50 was measured for NC(=O)c1nc(F)cnc1O [T-705, 6-Fluoro-3-hydroxy-2-pyrazinecarboxamide] , tested on RdRp of the influenza virus (replicon activity) (Influenza A virus, UniProt P03431)?
Response line: 29
